Reference source for all entries: patent US20260242405A1

measurement.type: pIC50
The quantity pIC50 is defined as the negative base-10 logarithm of the molar concentration.

Request body: readout pIC50, system NB-Aus21 (IBV neuraminidase) (Influenza B virus, UniProt A0A1X9RX69), query CC(=O)N[C@H]1[C@H]([C@H](O)[C@H](O)CO)OC(C(=O)O)=C[C@@H]1O [Neu5Ac2en, 2,3-dehydro-N-acetylneuraminic acid, reference compound] . Return the value.
5.82

Test system NB-Aus21 (IBV neuraminidase) (Influenza B virus, UniProt A0A1X9RX69); read-out pIC50; what value for `CC(=O)N[C@H]1[C@H]([C@H](O)[C@H](O)CO)OC(C(=O)O)=C[C@@H]1N=[N+]=[N-]` ?
5.82
